Catalogue of molecules with associated % of Prodrug Remaining after 60 min
assay: Prodrug stability in rat liver S9; format: in vitro ADME; settings: Rat Liver S9 (0.5 mg/mL), 2.0 μM, NADPH, 37° C.
Readout Label: % of Prodrug Remaining after 60 min (%)

CC(OC(=O)NC[C@H](CC(=O)[O-])c1ccc(Cl)cc1)OC(=O)C(C)C.[Na+] (some centres unmarked) | 4
CCCC(=O)OC(OC(=O)NC[C@H](CC(=O)[O-])c1ccc(Cl)cc1)C1CCCCC1.[Na+] (some centres unmarked) | 2
CC(=O)OC(C)OC(=O)NC[C@H](CC(=O)[O-])c1ccc(Cl)cc1.[Na+] (some centres unmarked) | 1
CCOC(C)(OCC)C(=O)OCOC(=O)NC[C@H](CC(=O)[O-])c1ccc(Cl)cc1.[Na+] | 2
CC(C)C(=O)OC(OC(=O)NC[C@H](CC(=O)[O-])c1ccc(Cl)cc1)C1CCCCC1.[Na+] (some centres unmarked) | 4
CC(C)C(=O)OCOC(=O)NC[C@H](CC(=O)[O-])c1ccc(Cl)cc1.[Na+] | 1
O=C([O-])C[C@@H](CNC(=O)OCOC(=O)c1ccccc1)c1ccc(Cl)cc1.[Na+] | 3
CCCC(=O)O[C@H](CCC)OC(=O)NC[C@H](CC(=O)[O-])c1ccc(Cl)cc1.[Na+] | 2
O=C([O-])C[C@@H](CNC(=O)OCOC(=O)C1CCCCC1)c1ccc(Cl)cc1.[Na+] | 2
CC(C)C(=O)O[C@@H](OC(=O)NC[C@H](CC(=O)O)c1ccc(Cl)cc1)C(C)C | 3
O=C([O-])C[C@@H](CNC(=O)OCOC(=O)CCc1ccccc1)c1ccc(Cl)cc1.[Na+] | 2
O=C([O-])C[C@@H](CNC(=O)OCOC(=O)c1cccs1)c1ccc(Cl)cc1.[Na+] | 2
CC(OC(=O)NC[C@H](CC(=O)[O-])c1ccc(Cl)cc1)OC(=O)c1ccccc1.[Na+] (some centres unmarked) | 8
CC(C)CC(=O)OCOC(=O)NC[C@H](CC(=O)[O-])c1ccc(Cl)cc1.[Na+] | 2
CC(C)C(=O)O[C@@H](OC(=O)NC[C@H](CC(=O)[O-])c1ccc(Cl)cc1)C(C)C.[Na+] | 6
CCCC(=O)OC(OC(=O)NC[C@H](CC(=O)[O-])c1ccc(Cl)cc1)C(C)C.[Na+] (some centres unmarked) | 0
CC(C)C(=O)O[C@H](C)OC(=O)NC[C@H](CC(=O)[O-])c1ccc(Cl)cc1.[Na+] | 1
